# experimental-protocol: NCI Yeast Anticancer Drug Screen. Data for the sgs1 mgt1 strain (AID 161);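 note: 0% = growth of cultures given vehicle only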
# test-context: S. cerevisiae sgs1 mgt1 strain, at 50.0 µM
This is part of a sample that, as a whole, favours compounds with a hit. Of some 79,000 tested, about 15% had one in any assay. Active and inactive are the calls of the source. Cut-off read from the data, not from the text of the source: active = growth inhibition above about 70%; inactive = the rest.
Can you answer with just one of these options? label 1 for active, label 0 for inactive

Assay outcome for CCCCCCCCCCN : what was it?
label 1

Assay outcome for N#Cc1ccccc1[N+](=O)[O-] : what was it?
label 0

What outcome does the record of this test show for COc1ccccc1/C=C(\NC(=O)c1ccccc1)c1nc2ccccc2[nH]1 ?
label 1

Assay result, entry C/C=C/C/S(=N\S(=O)(=O)c1ccc(C)cc1)c1ccccc1 (stereo unspecified) — outcome?
label 1

Field: outcome | Entry: CCC(Cl)COP(=O)(OCC(Cl)CC)OC(c1ccc(Cl)c(Cl)c1)P(=O)(OCC(Cl)CC)OCC(Cl)CC (stereo unspecified)
label 1

Check the results log: what was the call for CC1(C)OC2C(COC(c3ccccc3)(c3ccccc3)c3ccccc3)OC(n3ccc(=O)[nH]c3=O)C2O1 (stereo unspecified) ?
label 1

Look up the recorded call for C/C(=C/C(=O)/C=C/c1ccccc1)c1c(C)[nH]c2ccccc12 in this test.
label 0

Record lookup: outcome of this test for Cc1ccccc1C[n+]1ccccc1Br ?
label 0

Lab log entry: CCCCCCCCCCCc1ccn[nH]1 — outcome as called in the assay?
label 1

Given CN(C)c1nc(Cl)nc2c1ncn2C1OCC(O)C(O)C1O (stereo unspecified) , state the outcome it received in this test.
label 0

Which outcome was assigned to COc1ccc(C(=O)Nc2ccccc2[N+](=O)[O-])cc1 in this test?
label 0
